System Under Test: human GLP-1 receptor (human, UniProt P43220 24-463)
Protocol Summary: cell-based or functional assay
*1 amine or outer side, *2 acyl side, *3 side chain or, on linkers, in order; H or OH if unused. Where no end group is shown, it is not given here. Side-chain parts run from the residue outwards. [ ]: non-standard residue; d: D form. The star is where a group is joined. C20 diacid = O=C(O)CCCCCCCCCCCCCCCCCCC(=O)*; C18 diacid = O=C(O)CCCCCCCCCCCCCCCCC(=O)*; γGlu = O=C(O)[C@H](CCC(=O)[*:2])N[*:1]; εLys = N[C@@H](CCCCN[*:1])C(=O)[*:2]; Aib = CC(C)(N)C(=O)O
EC50, CreLuc reporter, 0.5% hP reference
Metric Name: EC50, CreLuc reporter, 0.5% hP (nM)

# Binder, Readout Units, Recorded Value
measured = [
    ("YXEGTFTSDLSIXLEKQAQXAFIRHLINKXTRQRY (Aib at 2, 13, 20, 30; Lys29 epsilon-amino acylated with C20DA-gGlu-gGlu-gGlu-gGlu-gGlu-gGlu-eLys; C-terminal amide) [Compound 21]", "nM", 4.8),
    ("Y[Aib]EGTFTSDYSI[Aib]LDQQAQ[Aib]AFVRHLINK([εLys-γGlu-γGlu-γGlu-γGlu-γGlu-C18 diacid])[Aib]TRQRY-NH2 [Compound 70]", "nM", 0.2),
    ("Y[Aib]EGTFTSDLSI[Aib]LEKQAQ[Aib]AFVRHLINK([γGlu-γGlu-γGlu-γGlu-γGlu-γGlu-C20 diacid])[Aib]TRQRY-NH2 [Compound 51]", "nM", 4.5),
]
